- Protocol Summary: Human HepG2 cell viability assay in 384 well format
- Assay type: toxicity, cell-based
- Parameters: dose 125 nL, time 70.5 hour; concentration not given beside the values
- Condition: HepG2 cells, read-out: Inhibition
Provide the reported cytotoxicity at 70.5 h of each item.
Answers are plain numbers, in %.

Some solved cases for reference:
>  <Compound>
CC(NC(=O)Nc1cccnc1N1CCCC1)c1nncn1C (configuration not stated)

>  <Result>
-13.7

$$$$
>  <Compound>
O=C(CO[C@@H]1CC[C@H]2[C@H]1OCCN2CC1CCOCC1)N1CCCC1

>  <Result>
-0.662

$$$$
>  <Compound>
CC(=O)CN1CC2(CCNCC2)COc2ccccc2S1(=O)=O

>  <Result>
-12.2

$$$$

State the recorded cytotoxicity at 70.5 h for every item in the following list.
1. O=C(Nc1nc(-c2ccccc2)ns1)N1CCN(C(=O)C2CC2)CC1
2. CC(CNCc1ccc2c(c1)n(C)c(=O)n2C)Oc1ccccn1 (configuration not stated)

1. -0.566
2. -24.7

I have 5 compounds here; please give me cytotoxicity at 70.5 h for each one.
1. CCN(Cc1cccc(-c2ccncc2)c1)S(C)(=O)=O
2. O=C1CN([C@@H]2CC[C@@H](NS(=O)(=O)c3ccccc3)[C@H]2O)CCN1
3. O=C(Cc1ccccn1)N1CCc2nc(-c3cnccn3)nc(O)c2C1
4. COC(=O)N1CCC(CNC(=O)C2CCN(S(C)(=O)=O)CC2)CC1
5. CCc1cnc(CNc2cccc3c2CCN(S(=O)(=O)CC)C3)o1

-4.62
-2.13
-4.01
-19.3
-2.87

Sourced from ChEMBL document CHEMBL3507680
